Tgt: HLA-B0702 (human)
Protocol Text: competition vs labelled reference peptide
Assay Setup: remark: other sources report otherwise
Quick reference: Ki of the listed items.

Binder	Ki
LPRRGPRL (modifications not checked)	1 nM

binder LPRRGPRLGV (modifications not checked) , Ki observed: 3 nM

Entry KPTLHGPTPL (modifications not checked) — recorded Ki = 6 nM

Ki in this record for ALAHGVRVL (modifications not checked) : 7950 nM

Attribution: patent EP1652858A1
